# PROTOCOL TEXT: Toxicity liver stage against HepG2, at 10uM
# Format: cell-based
# Design: test concentration 10 uM, cell line HepG2-A16-CD81EGFP
# COND: human, HepG2-A16-CD81EGFP cells; read-out: INHIBITION
ASSAY READOUT: cytotoxicity at 10 µM (%)
Numbers only, in %.

// solved cases for cytotoxicity at 10 µM follow
{"MOLECULE": "Cc1cccc(-n2nc(CC(C)C)nc2CS(C)(=O)=O)c1", "UNIT ABBREVIATION": "%", "cytotoxicity at 10 µM": 1.81}
{"MOLECULE": "CN(C)C(CNC(=O)NCCOc1ccccc1)c1ccco1 (configuration not stated)", "UNIT ABBREVIATION": "%", "cytotoxicity at 10 µM": -6.2}
{"MOLECULE": "Oc1ccc(Br)c(CNc2cccc(-c3nnc[nH]3)c2)c1", "UNIT ABBREVIATION": "%", "cytotoxicity at 10 µM": -38.9}
{"MOLECULE": "CC(C)(C)OC(=O)N1CCN(S(C)(=O)=O)C2(CCCCC2)C1", "UNIT ABBREVIATION": "%", "cytotoxicity at 10 µM": 10.3}
{"MOLECULE": "CCS(=O)(=O)Nc1ccc2oc(C)c(C(=O)OC)c2c1", "UNIT ABBREVIATION": "%", "cytotoxicity at 10 µM": 5.87}

# batch: return cytotoxicity at 10 µM for each of the 4 molecules below
1. CCC(CC)NCC(C)Oc1cccnc1 (configuration not stated)
2. Cc1nn(C)c(C)c1OCC(=O)N1CCCC1
3. OCC1CCCN1c1cc(NCc2cccs2)ncn1 (configuration not stated)
4. CC1(C)CNC(=O)c2nc(CCN3CCC(O)CC3)[nH]c2C1

[8.26, -10.9, -5.62, -10.4]

Kindly give each listed record's cytotoxicity at 10 µM.
1. O=C(c1cc(Cl)ccc1F)N1CCCC1Cn1cccn1 (configuration not stated)
2. CCN(Cc1nc2c(cnn2C)c(=O)[nH]1)c1cccc(C)c1
3. Cc1cnn(CC2CCN(CC(O)c3ccccc3F)CC2)c1 (configuration not stated)

8.36
-7.09
-5.18

Hello, I would appreciate it if you could give cytotoxicity at 10 µM for each entry below.
1. CCc1noc(C(C)N2CCN(CC(=O)N3CCOCC3)CC2)n1 (configuration not stated)
2. COc1cc(C)ccc1S(=O)(=O)N[C@H]1CN(C(C)=O)C[C@@H]1C1CC1
3. Cn1ccnc1C(=O)NCc1cnc2n1CCN(CC1CC1)CC2
4. O=C(NC1COC2(CCN(Cc3cccs3)CC2)C1)c1ccccn1 (configuration not stated)
5. CC(NCc1ccccn1)c1ccc(N2CCN(C)CC2)c(F)c1 (configuration not stated)

6.01
5.71
5.93
-2.19
-7.85

###

# PROTOCOL TEXT: Toxicity liver stage against HepG2, at 10uM
# Type: cell-based
# Set-up: test concentration 10 uM, cell line HepG2-A16-CD81EGFP
# COND: human, HepG2-A16-CD81EGFP cells; read-out: INHIBITION
ASSAY READOUT: cytotoxicity at 10 µM (%)
Answers are plain numbers, in %.

{"MOLECULE": "Cn1cnc2c1C(COCC1CCOCC1)CN(c1ncccn1)C2 (stereo unspecified)", "UNIT ABBREVIATION": "%", "cytotoxicity at 10 µM": -74.1}
{"MOLECULE": "Cn1nc2c(cc1=O)CN(Cc1nc(-c3cccs3)no1)CC2", "UNIT ABBREVIATION": "%", "cytotoxicity at 10 µM": -2.82}
{"MOLECULE": "CCN1CCC2(CCC1=O)CN(c1ccnc(SC)n1)CCN2C (stereo unspecified)", "UNIT ABBREVIATION": "%", "cytotoxicity at 10 µM": 17.7}
{"MOLECULE": "Cc1cc(CCC2CN(CC3(O)CCCCC3)CCO2)ncn1 (stereo unspecified)", "UNIT ABBREVIATION": "%", "cytotoxicity at 10 µM": 2.97}
{"MOLECULE": "CCn1cnnc1CCNCc1c[nH]nc1-c1ccc(F)cc1", "UNIT ABBREVIATION": "%", "cytotoxicity at 10 µM": 1.31}
{"MOLECULE": "COc1ccc(OC)c(C2CCN(C(=O)C3CCS(=O)(=O)CC3)C2)c1 (stereo unspecified)", "UNIT ABBREVIATION": "%", "cytotoxicity at 10 µM": 1.21}
{"MOLECULE": "Cc1ccnn1CCC(=O)N1CCC(c2cnccn2)CC1", "UNIT ABBREVIATION": "%", "cytotoxicity at 10 µM": -26.1}
{"MOLECULE": "NS(=O)(=O)CCCC(=O)N1CCC2(CC1)c1ccccc1CC2O (stereo unspecified)", "UNIT ABBREVIATION": "%", "cytotoxicity at 10 µM": 4.71}

Quick request: cytotoxicity at 10 µM for each listed item, please.
1. CCc1cnc(CN(C(C)=O)C2CCN(CCS(C)(=O)=O)C2)o1 (stereo unspecified)
2. CCOCCNC(=O)c1cccc(S(=O)(=O)NC[C@@H]2C[C@H](F)CN2)c1
3. CC1COCCN1C(=O)c1cccc(OCc2cscn2)c1 (stereo unspecified)
4. CC(Cn1cccn1)NC(=O)Nc1ccc(N(C)C)nc1 (stereo unspecified)
5. Cc1nc(CCNC(C)c2ccc3c(c2)OCCCO3)cs1 (stereo unspecified)
6. Cc1ccc(-c2n[nH]cc2CNCC2CCN(CC(C)O)CC2)cc1 (stereo unspecified)
7. CC(=O)NC[C@]1(O)CCN(C(=O)c2ccc3c(c2)CCC3)C[C@H]1O
8. COc1ccc(-c2nc(CN3CCN(CCO)CC3)co2)cc1

-17.8
-18.8
-9.93
14.4
3.3
-16.6
1.75
-0.0868

###

Please go through the items and note down their cytotoxicity at 10 µM.
# PROTOCOL TEXT: Toxicity liver stage against HepG2, at 10uM
# Type: cell-based
# Parameters: test concentration 10 uM, cell line HepG2-A16-CD81EGFP
# COND: human, HepG2-A16-CD81EGFP cells; read-out: INHIBITION
Numbers only, in %.

{"COMPOUND": "CCCc1cc(C(=O)N(C)Cc2cccc3ncccc23)n(C)n1", "cytotoxicity at 10 µM / %": -0.758}
{"COMPOUND": "CNC1CCCN(Cc2noc(C3CC3)n2)C1 (configuration not stated)", "cytotoxicity at 10 µM / %": 0.95}
{"COMPOUND": "CN(c1cccnn1)C1CCN(C(=O)c2n[nH]c3c2CCC3)CC1", "cytotoxicity at 10 µM / %": 6.96}

Please state, for each entry, its recorded cytotoxicity at 10 µM.
1. CN(C)S(=O)(=O)N(C)C(c1cccc(F)c1)c1ccccn1 (configuration not stated)
2. CC(C)=CCN1C[C@@H](C(=O)O)C[C@H](C(=O)Nc2ccc(C)nc2)C1
3. CC1CN(C(=O)NCc2ccn(C)c2)CCN1CC(F)(F)F (configuration not stated)
4. CC(C)COC(=O)N1CCC2(CCNC2)C1 (configuration not stated)

3.22
5.67
-4.32
-10.1

###

# PROTOCOL TEXT: Toxicity liver stage against HepG2, at 10uM
# Format: cell-based
# Set-up: test concentration 10 uM, cell line HepG2-A16-CD81EGFP
# COND: human, HepG2-A16-CD81EGFP cells; read-out: INHIBITION
Kindly supply the reported cytotoxicity at 10 µM values for the records listed here.
Give bare numbers, in %.

// solved cases for cytotoxicity at 10 µM follow
{"MOLECULE": "CNc1ncc(C(=O)N2CCCC(Cc3ccccc3OC)C2)s1 (stereo not drawn)", "ASSAY READOUT": "cytotoxicity at 10 µM", "RECORDED NUMBER": -0.094}
{"MOLECULE": "CN(C)S(=O)(=O)N1CCN(c2nccc(C(F)(F)F)n2)CC1", "ASSAY READOUT": "cytotoxicity at 10 µM", "RECORDED NUMBER": -7.04}

Form: molecule = COc1ccc(C[C@H]2CNCC[C@@H]2OCC2CC2)cc1 ; cytotoxicity at 10 µM = -1.24

###

# PROTOCOL TEXT: Toxicity liver stage against HepG2, at 10uM
# Assay type: cell-based
# Set-up: test concentration 10 uM, cell line HepG2-A16-CD81EGFP
# COND: human, HepG2-A16-CD81EGFP cells; read-out: INHIBITION
ASSAY READOUT: cytotoxicity at 10 µM (%)
Give bare numbers, in %.

{"MOLECULE": "CN(C)c1ncccc1C(=O)N1CCCC1Cn1cccn1 (centres undefined)", "UNIT ABBREVIATION": "%", "cytotoxicity at 10 µM": -2.83}
{"MOLECULE": "CCN(CC)CCNC(=O)CCc1c(C)nn(-c2ccc(Cl)cc2)c1C", "UNIT ABBREVIATION": "%", "cytotoxicity at 10 µM": -5.93}
{"MOLECULE": "CCc1c(C)[nH]c(C(C)(C)N)nc1=O", "UNIT ABBREVIATION": "%", "cytotoxicity at 10 µM": -11}
{"MOLECULE": "COc1ccc(-n2cccn2)c(CN2CCC3(CCCNC3)C2)c1 (centres undefined)", "UNIT ABBREVIATION": "%", "cytotoxicity at 10 µM": -1.09}
{"MOLECULE": "CCOC(=O)N1CCC2(CC1)N=C(CCC(C)C)NC2=O", "UNIT ABBREVIATION": "%", "cytotoxicity at 10 µM": -6.55}
{"MOLECULE": "CCN1CCN(CC(O)c2cc(Cl)ccc2Cl)CC1 (centres undefined)", "UNIT ABBREVIATION": "%", "cytotoxicity at 10 µM": 0.388}

For each of the items listed, what is its cytotoxicity at 10 µM?
1. O=C(CC1CCCCC1)N1CCOCC1CO (centres undefined)
2. NC(=O)c1ccc(CNCC2CCN(CCO)CC2)cc1

1: -0.779; 2: -9.93
